Tested on: CAKI-1
Test: Cytotoxicity against human CAKI-1 cells assessed as cell growth at 10 uM after 48 hrs by SRB assay
Assay type: functional
Conditions: CAKI-1, 48 h, read-out: Activity
quantity: growth at 10 µM (%)
Report the value in % with no unit label.

Item: CCSc1nc2ccc3c(c2[nH]1)C(=O)c1ccccc1C3=O | System: CAKI-1 | growth at 10 µM: -8.01

Here O=C1c2ccccc2C(=O)c2c1ccc1[nH]c(=S)[nH]c21 was tested on CAKI-1, and its growth at 10 µM came to 91.2

Tested on CAKI-1, the item CCCSc1nc2ccc3c(c2[nH]1)C(=O)c1ccccc1C3=O showed growth at 10 µM equal to 45.5

Result for CN(C)CCCSc1nc2ccc3c(c2[nH]1)C(=O)c1ccccc1C3=O , tested on CAKI-1, growth at 10 µM: -14.9
